test system: Vero E6 infected with SARS-CoV-2; test: inhibition of SARS-CoV-2 cytopathic effect; higher = more antiviral protection, active = above 15; conditions: 100 nM; 48 h
Reported inhibition of SARS-CoV-2 cytopathic effect by item:
Write the value in % as a bare number.

The following compounds have reported results that may help.
C#Cc1cccc(Nc2ncnc3cc(OCCOC)c(OCCO)cc23)c1 = -2.61
COc1cc2ncnc(Nc3ccc(F)c(Cl)c3)c2cc1NC(=O)/C=C/CN1CCCCC1 [dacomitinib] = -13.6
Nc1nc(Cl)nc2c1ncn2[C@@H]1O[C@H](CO)[C@@H](O)[C@@H]1F [clofarabine] = 1.42
COc1ccc(C(=O)Nc2sc3c(c2C(N)=O)CCCC3)cc1OC = -3.78
CC(C)c1c(NC(=O)Nc2ccc(Cl)cc2)c(=O)n(-c2ccccc2)n1C = 0.07
c1cnc(N2CCN(Cc3ccc4c(c3)OCO4)CC2)nc1 [piribedil] = 1.85
CCCCCCCCCC(=O)OCCN1CCN(CCCN2c3ccccc3Sc3ccc(C(F)(F)F)cc32)CC1 [fluphenazine-decanoate] = -8.72
COc1ccccc1N1CCN(CCCCN2C(=O)c3ccccc3C2=O)CC1 = 2.68
Cc1cc(Nc2ccc(NC(=O)c3ccc(Nc4ccnc5ccccc45)cc3)cc2)nc(N)n1 = 2.48
COc1cccc2c1c(O)c(C(=O)N(C)c1ccc(C(F)(F)F)cc1)c(=O)n2C [tasquinimod] = 1.4

For O=[N+]([O-])O[C@@H]1CO[C@H]2[C@@H]1OC[C@@H]2O [isosorbide-mononitrate] , what is its reported inhibition of SARS-CoV-2 cytopathic effect? -1.7

For C[C@]12N[C@H](Cc3ccccc31)c1ccccc12 [dizocilpine-(-)] , what is its reported inhibition of SARS-CoV-2 cytopathic effect? 1.33

For Oc1noc2c1CCNC2 [gaboxadol] , what is its reported inhibition of SARS-CoV-2 cytopathic effect? 1.13

For N=C(N)NC(=N)Nc1cccc(Cl)c1 [m-chlorophenylbiguanide] , what is its reported inhibition of SARS-CoV-2 cytopathic effect? 0.58

For c1cc2c(c(N3CCNCC3)c1)OCCO2 [eltoprazine] , what is its reported inhibition of SARS-CoV-2 cytopathic effect? 2.47

For O=C1c2ccc(Nc3ccc(F)cc3F)cc2CCc2ccc(OC[C@H](O)CO)cc21 [skepinone-L] , what is its reported inhibition of SARS-CoV-2 cytopathic effect? -5.13

For N#Cc1c(-c2ccccc2)cc(-c2cc(Br)ccc2O)[nH]c1=O , what is its reported inhibition of SARS-CoV-2 cytopathic effect? 3

For COc1cc2ncnc(Nc3ccc(O)c(Br)c3)c2cc1OC , what is its reported inhibition of SARS-CoV-2 cytopathic effect? -3.04

----------
test system: Vero E6 infected with SARS-CoV-2; experiment: inhibition of SARS-CoV-2 cytopathic effect; higher = more antiviral protection, active = above 15; details: 8.33 nM; 48 h
measurementType: inhibition of SARS-CoV-2 cytopathic effect (%)
Write the value in % as a bare number.

c1ccc(C(NCc2cccnc2)(c2ccccc2)c2ccccc2)cc1 = 4.02
O=C(c1ccc(F)cc1)C1CCN(CCn2c(=O)[nH]c3ccccc3c2=O)CC1 = -0.51

Continue with the next molecule.
For C=CCc1cc(OC)c(O)c(C(=O)NCCO)c1 [alibendol] , what is its reported inhibition of SARS-CoV-2 cytopathic effect? -1.21
